All values here come from patent US20240368168A1.

IC50 overview
Sequence of the target: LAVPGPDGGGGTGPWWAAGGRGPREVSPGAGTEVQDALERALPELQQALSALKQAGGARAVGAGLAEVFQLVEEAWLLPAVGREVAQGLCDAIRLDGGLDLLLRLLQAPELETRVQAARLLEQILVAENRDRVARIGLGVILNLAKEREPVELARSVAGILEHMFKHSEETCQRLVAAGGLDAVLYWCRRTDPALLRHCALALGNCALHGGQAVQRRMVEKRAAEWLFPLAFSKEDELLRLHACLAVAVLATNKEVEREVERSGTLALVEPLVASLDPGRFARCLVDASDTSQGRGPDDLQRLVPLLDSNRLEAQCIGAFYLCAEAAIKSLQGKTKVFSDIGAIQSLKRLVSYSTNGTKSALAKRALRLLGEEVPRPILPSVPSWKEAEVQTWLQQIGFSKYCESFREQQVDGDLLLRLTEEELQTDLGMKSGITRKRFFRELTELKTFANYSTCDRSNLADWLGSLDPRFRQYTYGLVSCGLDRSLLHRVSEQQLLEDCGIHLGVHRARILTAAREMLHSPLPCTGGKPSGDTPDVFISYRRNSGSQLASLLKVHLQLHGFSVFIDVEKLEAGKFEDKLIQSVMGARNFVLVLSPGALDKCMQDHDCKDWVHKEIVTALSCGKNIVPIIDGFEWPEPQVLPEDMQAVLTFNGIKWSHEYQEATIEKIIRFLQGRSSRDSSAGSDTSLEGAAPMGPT

Worked set:
INSERT INTO assay_data (compound, result) VALUES
  ('CN(C(=O)OC(C)(C)C)c1ccc2ncc(-c3cccc(CNC(=O)OC(C)(C)C)c3)n2c1', '< 1000 nM'),
  ('Ic1cnc2ccc(-n3cccn3)cn12', '1000 to 10000 nM'),
  ('CNc1ccc2ncc(-c3cccc(S(=O)(=O)NC4CCOCC4)c3)n2c1', '< 1000 nM');

Then there is this compound:
Query :: Which IC50 is reported for this compound? `CN(C(=O)OC(C)(C)C)c1ccc2ncc(-c3ccccc3Cl)n2c1`
Result :: 1000 to 10000 nM

###

Let's look at some compounds and their measured inhibition at 20 µM.
- experimental.target: dN-SARM1 protein (Homo sapiens)
- Construct: the N-terminal mitochondrial localization signal peptide of SARM1 was removed
- procedure.summary: In vitro biochemical assay for inhibiting SARM1 enzymatic activity (% inhibition rate), PC6 fluorescence method
- test.context: 20 μM compound; 50 μM NAD, 50 μM PC6, 50 μM NMN activator

Use the examples below as a reference point.
INSERT INTO results (compound, metric, result) VALUES
  ('COCCOCC(=O)Nc1cccc(-c2cnc3ccc(C)cn23)c1', 'inhibition at 20 µM', '> 90%'),
  ('COCCOCC(=O)Nc1cccc(-c2cnc3ccc(NC(=O)COC)cn23)c1', 'inhibition at 20 µM', '> 90%'),
  ('CC(C)(C)OC(=O)N(c1ccccc1)c1ccc2ncc(-c3ccccc3)n2c1', 'inhibition at 20 µM', '> 90%'),
  ('CNc1ccc2ncc(-c3cccc(S(=O)(=O)NCCOCCOC)c3)n2c1', 'inhibition at 20 µM', '50 to 89%'),
  ('CNc1ccc2ncc(-c3cccc(NC(=O)COCCOCC(=O)Nc4cccc(-c5cnc6ccc(NC)cn56)c4)c3)n2c1', 'inhibition at 20 µM', '> 90%'),
  ('CCOC(=O)c1ccc(-c2cnc3ccc(NC(=O)OC(C)(C)C)cn23)s1', 'inhibition at 20 µM', '> 90%'),
  ('CN(C(=O)OC(C)(C)C)c1ccc2ncc(-c3cccc(NC(=O)CN4CCOCC4)c3)n2c1', 'inhibition at 20 µM', '> 90%'),
  ('COc1cccn2c(-c3ccccc3)cnc12', 'inhibition at 20 µM', '50 to 89%'),
  ('CC(C)(C)OC(=O)NCc1ccc2ncc(I)n2c1', 'inhibition at 20 µM', '> 90%'),
  ('Nc1cn2c(-c3ccccc3)cnc2cc1Cl', 'inhibition at 20 µM', '> 90%');

Query :: Give recorded inhibition at 20 µM with dN-SARM1 protein (Homo sapiens) for the following compound: `CC(C)(C)OC(=O)Nc1ccc2ncc(-c3cc(C(=O)NC4CCOCC4)cs3)n2c1`
Result :: > 90%

Query :: Any idea what inhibition at 20 µM came out for `COCCOCC(=O)Nc1cccc(-c2cnc3ccc(NC(=O)C4CC4)cn23)c1` on dN-SARM1 protein (Homo sapiens)?
Result :: > 90%

Query :: Give dN-SARM1 protein (Homo sapiens) inhibition at 20 µM for `CNc1ccc2ncc(-c3cccc(S(=O)(=O)NC4CCOCC4)c3)n2c1`
Result :: > 90%

Query :: Given the entry `CN1CCN(c2ccc3nccn3c2)CC1` , what inhibition at 20 µM was observed with dN-SARM1 protein (Homo sapiens)?
Result :: 50 to 89%

Query :: GET /values?readout=inhibition at 20 µM&system=dN-SARM1 protein (Homo sapiens)&item= `CNc1ccc2ncc(-c3cccc(C(=O)NC4CCOCC4)c3)n2c1`
Result :: > 90%
